# SUBJECT_OF_TEST: Sigma-1 receptor (Sig-1R) (Homo sapiens, UniProt Q99720)
# Construct: gene SIGMAR1; human Sig-1R-GFP stably expressed in Neuro-2A cell membranes
# Sequence (Q99720 whole entry): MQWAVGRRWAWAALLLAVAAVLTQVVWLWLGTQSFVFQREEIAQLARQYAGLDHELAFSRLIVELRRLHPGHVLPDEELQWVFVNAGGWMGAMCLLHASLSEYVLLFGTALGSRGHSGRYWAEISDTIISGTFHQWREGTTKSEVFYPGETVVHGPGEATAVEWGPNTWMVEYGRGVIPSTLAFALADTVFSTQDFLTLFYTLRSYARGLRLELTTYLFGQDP
# ASSAY_NOTES: [3H](+)-pentazocine competition radioligand binding, membranes
READOUT: Ki (µM)

>>> experimental_result("C[N+](C)(C)CCO")
525

* * *

# SUBJECT_OF_TEST: Sigma-1 receptor (Sig-1R) (Homo sapiens)
# Construct: gene SIGMAR1; human Sig-1R-GFP stably expressed in Neuro-2A cell membranes
# ASSAY_NOTES: [3H](+)-pentazocine competition radioligand binding, membranes
# CONDITION_DESCRIPTION: read-out: Ki
READOUT: Ki (mM)

>>> experimental_result("C[N+](C)(C)CC(=O)O [betaine]")
1.32
